Target: Aβ1-42 fibers (human)
Assay: SPR
pKd: −log10 of the molar value.
readout_name: pKd

binder: MS-R 3.4H3 x 3.4L7 Fab (antibody, V domains shown) VH: QLVESGGGLVQPGGSLRLSCAASGFTFSSYAMSWVRQAPGKGLEWVSVISQTGRKIYYADSVKGRFTISRDNSKNTLYLQMNSLRAEDTAVYYCARLTHYARYYRYFDVWGQGTLVTVSS VL: DIVLTQSPATLSLSPGERATLSCRASQRLGRLYLAWYQQKPGQAPRLLIYGASSRATGVPARFSGSGSGTDFTLTISSLEPEDFATYYCQQTYDYPPTFGQGTKVEIKR
readout_name: pKd
observed_measurement: 9.04
//
binder: MS-R 3.4H1 x 3.4L9 Fab (antibody, V domains shown) VH: QLVESGGGLVQPGGSLRLSCAASGFTFSSYAMSWVRQAPGKGLEWVSAISETSIRKYYADSVKGRFTISRDNSKNTLYLQMNSLRAEDTAVYYCARLTHYARYYRYFDVWGQGTLVTVSS VL: DIVLTQSPATLSLSPGERATLSCRASRRIHVYYLAWYQQKPGQAPRLLIYGASSRATGVPARFSGSGSGTDFTLTISSLEPEDFATYYCQQTYDYPPTFGQGTKVEIKR
readout_name: pKd
observed_measurement: 9.30
//
binder: MS-R 7.9H2 x 7.12L2(L1+2) Fab (antibody, V domains shown) VH: QLVESGGGLVQPGGSLRLSCAASGFTFSSYAMSWVRQAPGKGLEWVSAINADGNRKYYADSVKGRFTISRDNSKNTLYLQMNSLRAEDTAVYYCARGKGNTHKPYGYVRYFDVWGQGTLVTVSS VL: DIVLTQSPATLSLSPGERATLSCRASQRFFYKYLAWYQQKPGQAPRLLISGSSNRATGVPARFSGSGSGTDFTLTISSLEPEDFAVYYCLQLYNIPNTFGQGTKVEIKR
readout_name: pKd
observed_measurement: 9.40
